system: EKVX NSCLC; assay: NCI-60 one-dose screen, 48 h (100 = growth as untreated, 0 = no growth, -100 = all killed); conditions: 10 µM unless noted
Compounds without any hit were thinned out: in the full panel of roughly 83,000, 20% have a hit.
growth under 90% gets true (1), anything at or over 90% gets false (0).

Worked examples, 4 molecules total:
* C=C1C(=O)O[C@H]2[C@H]1CC/C(Cn1cc(-c3ccsc3)nn1)=C\CC[C@@]1(C)O[C@@H]21 | true (1)
* Cc1ccc(S(=O)(=O)N2CCC(C(=O)Nc3ccc(F)cc3F)CC2)cc1 | false (0)
* OC1CC2c3ccccc3C1c1ccccc12 (stereo not given) | false (0)
* CCCCCCCN(CCCCCCC)C(=N)c1ccc(OC)c2ccccc12 | true (1)

Attention now shifts to the item below.
Please determine if "COc1cc(/C=C/C(=O)c2ccccc2O)ccc1OCCCOc1cc2c(cc1OC)C(=O)N1CCC[C@H]1C=N2" is below 90% in terms of growth.
true (1)
